target or test system: human sphingosine-1-phosphate receptor 1 (S1P1) (Homo sapiens, UniProt P21453)
Sequence (P21453 whole entry): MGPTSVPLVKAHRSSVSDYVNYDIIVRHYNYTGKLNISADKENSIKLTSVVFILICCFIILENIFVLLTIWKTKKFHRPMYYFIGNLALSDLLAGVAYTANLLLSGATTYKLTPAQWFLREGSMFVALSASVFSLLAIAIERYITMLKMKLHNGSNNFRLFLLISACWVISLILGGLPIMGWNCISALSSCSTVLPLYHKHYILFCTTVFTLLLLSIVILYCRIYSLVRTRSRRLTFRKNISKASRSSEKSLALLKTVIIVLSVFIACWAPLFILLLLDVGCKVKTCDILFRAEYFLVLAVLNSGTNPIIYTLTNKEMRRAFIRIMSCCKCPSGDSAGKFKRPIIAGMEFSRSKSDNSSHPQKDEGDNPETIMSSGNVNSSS
assay details: Inhibition of cAMP production (HTRF cAMP HiRange), S1P1 CHO-K1 cells
Format: cell-based
condition info: inhibition of cAMP production; potency; read-out: hS1P1 CAMP pEC50 (converted)
readout: EC50

{"compound": "CCC1(CC)CC(=O)c2cc(-c3nc(-c4cccc(C)c4)no3)ccc2O1 [Compound 225]", "meas value": "> 0.316 µM"}
{"compound": "CCC1(CC)CC(=O)c2cc(-c3nc(-c4ccncc4F)no3)ccc2O1 [Compound 226]", "meas value": "> 0.316 µM"}
{"compound": "CC(C)CCn1nnc2cc(-c3nc(-c4ccccc4)no3)ccc21 [Compound 271]", "meas value": "> 0.316 µM"}
{"compound": "Cc1ccccc1-c1noc(-c2ccc3c(c2)nnn3C2CCCC2)n1 [Compound 175]", "meas value": "< 0.316 µM"}
{"compound": "Cn1nnc2cc(-c3noc(-c4ccccc4Br)n3)ccc21 [Compound 73]", "meas value": "> 0.316 µM"}
{"compound": "CC(C)n1nnc2cc(-c3ncc(-c4ccccc4F)s3)ccc21 [Compound 63]", "meas value": "< 0.316 µM"}
{"compound": "CCC1(CC)CC(=O)c2cc(-c3nnc(-c4ccc5c(c4)nnn5C(C)C)o3)ccc2O1 [Compound 223]", "meas value": "> 0.316 µM"}
{"compound": "CCC1(CC)CC(=O)c2cc(-c3nc(-c4ccccc4OC)ns3)ccc2O1 [Compound 257]", "meas value": "> 0.316 µM"}
{"compound": "Cc1cccc(-c2nc(-c3ccc4c(c3)nnn4C3CCCC3)no2)c1 [Compound 273]", "meas value": "> 0.316 µM"}
{"compound": "Cc1oc(-c2ccc3c(c2)nnn3C(C)C)nc1-c1ccc(Cl)cc1 [Compound 50]", "meas value": "> 0.316 µM"}
{"compound": "Cc1ccccc1Cc1noc(-c2ccc3c(c2)nnn3C(C)C)n1 [Compound 202]", "meas value": "> 0.316 µM"}
{"compound": "CCCn1nnc2cc(-c3nc(-c4ccc(C(F)(F)F)c(F)c4)no3)ccc21 [Compound 193]", "meas value": "> 0.316 µM"}
{"compound": "Cc1oc(-c2ccc3c(c2)nnn3C(C)C)nc1-c1ccccc1 [Compound 247]", "meas value": "> 0.316 µM"}
{"compound": "COc1cccc(-c2noc(-c3ccc4c(c3)nnn4C3CCCC3)n2)n1 [Compound 124]", "meas value": "> 0.316 µM"}
{"compound": "CC(C)Oc1ccccc1-c1noc(-c2ccc3c(c2)nnn3C(C)C)n1 [Compound 62]", "meas value": "> 0.316 µM"}
{"compound": "CCC1(CC)CC(=O)c2cc(-c3nc(-c4ccc5[nH]ncc5c4)no3)ccc2O1 [Compound 152]", "meas value": "> 0.316 µM"}
{"compound": "COc1ccccc1-c1coc(-c2ccc3c(c2)nnn3C(C)C)n1 [Compound 277]", "meas value": "< 0.316 µM"}
{"compound": "CCC1(CC)CC(=O)c2cc(-c3nc(-c4cccnc4)ns3)ccc2O1 [Compound 309]", "meas value": "> 0.316 µM"}
